- Test system: SK-MEL-5
- test: NCI tumour cell line growth inhibition, 48 h
Activity calls are given as the source filed them. No stated cut-off is given here; in the data, active = GI50 up to about 1.1 µM and inactive = higher.
measure-name: GI50

Worked cases, answers included:
Cc1cc(C)c2c(=O)cc(-c3ccccc3)[nH]c2c1    1.3 µM (inactive)
COc1ccc(-c2cc(O)c3cc(Cl)ccc3n2)cc1    > 100 µM (inactive)
Cc1ccc(S(=O)(=O)N2C[C@@H]3CC[C@]4(CO[Si](C)(C)C(C)(C)C)N[C@@H](c5ccccc5)[C@H]2[C@H]34)cc1    13.8 µM (inactive)

Query GI50 for COc1ccc(/C(Cl)=C(\C=O)c2ccc(Cl)cc2)cc1
11.2 µM (inactive)

Supply GI50 value. Item: COP(=O)(OC)C12CCOCCN1c1ccccc1C2=O (configuration not stated)
> 100 µM (inactive)

Tell me GI50 reported for O=c1[nH]c(S)nc2c1sc(=S)n2-c1ccccc1
> 100 µM (inactive)

For the compound CCOC(=O)COc1cc(-c2ccccc2)nc2cc(F)ccc12 , give its reported GI50.
> 100 µM (inactive)

Assign GI50 to the following record: Nc1nc(Cl)cc(NC2(CO)CCC2)n1
> 100 µM (inactive)

Specify measured GI50 for NCCCCNCCCNC(=O)c1nc(-c2csc(CCN)n2)sc1Cl .
> 100 µM (inactive)

Item Cc1c2c(cc3c(=O)ccn(CCN(C)C)c13)c(=O)ccn2CCN(C)C : provide GI50
20 µM (inactive)

For the compound COc1ccc2[nH]c3c(c2c1)[C@H]1CCC(C(C)(C)C)C[C@H]1[C@H]1C(=O)N(c2ccccc2)C(=O)[C@@H]31 (some centres not stated) , report GI50.
> 47.6 µM (inactive)

Quick one: give measured GI50 for CC(=O)OC[C@@]12Cc3ccc(C)c(O)c3[C@]1(C)[C@@H](OC(C)=O)[C@]1(O)[C@H]([C@@H](OC(=O)c3ccccc3)[C@@H](C)[C@H]1OC(C)=O)[C@H]2OC(C)=O
> 50 µM (inactive)
